Data credit: ChEMBL document CHEMBL2417498

The reader will find reported IC50 values listed item by item below.
system: Detroit 551; assay: Cytotoxicity against human Detroit 551 cells after 48 hrs by MTT assay; assay type: cell-based; details: Detroit 551, 48 h
MEASURED ATTRIBUTE: IC50

INSERT INTO results (structure_smiles_string, measured_attribute, measured) VALUES
  ('COc1cc(-c2cc(=O)[nH]c3cc4c(cc23)OCO4)cc(OC)c1OC', 'IC50', '> 25 µM'),
  ('COc1cc(OC)cc(-c2cc(=O)[nH]c3cc4c(cc23)OCO4)c1', 'IC50', '> 10 µM'),
  ('COc1ccccc1-c1cc(=O)[nH]c2cc3c(cc12)OCO3', 'IC50', '> 25 µM'),
  ('COc1cccc(-c2cc(=O)[nH]c3cc4c(cc23)OCO4)c1', 'IC50', '> 10 µM'),
  ('O=c1cc(-c2cccc(F)c2)c2cc3c(cc2[nH]1)OCO3', 'IC50', '> 20 µM'),
  ('O=c1cc(-c2ccccc2)c2cc3c(cc2[nH]1)OCO3', 'IC50', '> 50 µM');

###

tested on: COLO 205; assay: Cytotoxicity against human COLO205 cells after 48 hrs by MTT assay; type: functional, cell-based; conditions: COLO 205, 48 h
pIC50: −log10 of the molar value.
pIC50 values by entry
MEASURED ATTRIBUTE: pIC50

INSERT INTO measurements (structure_smiles_string, measured_attribute, result_operator, measured) VALUES
  ('O=c1cc(-c2ccccc2)c2cc3c(cc2[nH]1)OCO3', 'pIC50', '<', 4.30),
  ('COc1ccc(-c2cc(=O)[nH]c3cc4c(cc23)OCO4)cc1', 'pIC50', '<', 4.30),
  ('COc1cc(OC)c(-c2cc(=O)[nH]c3cc4c(cc23)OCO4)c(OC)c1', 'pIC50', '=', 4.43),
  ('COc1ccccc1-c1cc(=O)[nH]c2cc3c(cc12)OCO3', 'pIC50', '=', 4.74),
  ('O=c1cc(-c2ccccc2F)c2cc3c(cc2[nH]1)OCO3', 'pIC50', '<', 4.30),
  ('COc1cc(-c2cc(=O)[nH]c3cc4c(cc23)OCO4)cc(OC)c1OC', 'pIC50', '<', 4.30),
  ('COc1ccc(OC)c(-c2cc(=O)[nH]c3cc4c(cc23)OCO4)c1', 'pIC50', '=', 5.21),
  ('COc1ccc(-c2cc(=O)[nH]c3cc4c(cc23)OCO4)cc1OC', 'pIC50', '=', 4.77),
  ('O=c1cc(-c2cccc(F)c2)c2cc3c(cc2[nH]1)OCO3', 'pIC50', '<', 4.30),
  ('COc1ccc(-c2cc(=O)[nH]c3cc4c(cc23)OCO4)c(OC)c1', 'pIC50', '=', 5.13),
  ('O=c1cc(-c2ccc(F)cc2)c2cc3c(cc2[nH]1)OCO3', 'pIC50', '<', 4.30),
  ('COc1cccc(OC)c1-c1cc(=O)[nH]c2cc3c(cc12)OCO3', 'pIC50', '<', 4.30),
  ('COc1cc(OC)cc(-c2cc(=O)[nH]c3cc4c(cc23)OCO4)c1', 'pIC50', '<', 4.30),
  ('COc1cccc(-c2cc(=O)[nH]c3cc4c(cc23)OCO4)c1', 'pIC50', '=', 4.40);

###

The entries below come with measured IC50 values attached.
test: Cytotoxicity against human 2774 cells after 48 hrs by MTT assay; assay type: functional, cell-based
MEASURED ATTRIBUTE: IC50 (µM)

INSERT INTO assay_data (structure_smiles_string, measured_attribute, result_operator, measured) VALUES
  ('COc1cc(OC)c(-c2cc(=O)[nH]c3cc4c(cc23)OCO4)c(OC)c1', 'IC50', '>', 30),
  ('O=c1cc(-c2ccc(F)cc2)c2cc3c(cc2[nH]1)OCO3', 'IC50', '=', 17.6),
  ('O=c1cc(-c2ccccc2F)c2cc3c(cc2[nH]1)OCO3', 'IC50', '=', 26.4),
  ('COc1ccccc1-c1cc(=O)[nH]c2cc3c(cc12)OCO3', 'IC50', '=', 18.8),
  ('COc1cccc(OC)c1-c1cc(=O)[nH]c2cc3c(cc12)OCO3', 'IC50', '>', 30),
  ('COc1ccc(-c2cc(=O)[nH]c3cc4c(cc23)OCO4)cc1OC', 'IC50', '=', 6.6),
  ('COc1cccc(-c2cc(=O)[nH]c3cc4c(cc23)OCO4)c1', 'IC50', '=', 15.6),
  ('O=c1cc(-c2ccccc2)c2cc3c(cc2[nH]1)OCO3', 'IC50', '>', 30),
  ('COc1cc(-c2cc(=O)[nH]c3cc4c(cc23)OCO4)cc(OC)c1OC', 'IC50', '=', 2.1),
  ('COc1ccc(-c2cc(=O)[nH]c3cc4c(cc23)OCO4)cc1', 'IC50', '>', 30),
  ('COc1ccc(-c2cc(=O)[nH]c3cc4c(cc23)OCO4)c(OC)c1', 'IC50', '=', 0.4);

###

test system: Detroit 551; experiment: Cytotoxicity against human Detroit 551 cells after 48 hrs by MTT assay; assay type: cell-based; conditions: Detroit 551, 48 h
MEASURED ATTRIBUTE: IC50

INSERT INTO measurements (structure_smiles_string, measured_attribute, measured) VALUES
  ('COc1ccc(-c2cc(=O)[nH]c3cc4c(cc23)OCO4)cc1OC', 'IC50', '23.6 µM'),
  ('COc1cccc(OC)c1-c1cc(=O)[nH]c2cc3c(cc12)OCO3', 'IC50', '> 100 µM'),
  ('COc1ccc(-c2cc(=O)[nH]c3cc4c(cc23)OCO4)c(OC)c1', 'IC50', '> 25 µM'),
  ('COc1ccc(-c2cc(=O)[nH]c3cc4c(cc23)OCO4)cc1', 'IC50', '> 20 µM'),
  ('COc1cc(OC)c(-c2cc(=O)[nH]c3cc4c(cc23)OCO4)c(OC)c1', 'IC50', '> 100 µM'),
  ('O=c1cc(-c2ccc(F)cc2)c2cc3c(cc2[nH]1)OCO3', 'IC50', '> 20 µM'),
  ('O=c1cc(-c2ccccc2F)c2cc3c(cc2[nH]1)OCO3', 'IC50', '> 100 µM'),
  ('COc1ccc(OC)c(-c2cc(=O)[nH]c3cc4c(cc23)OCO4)c1', 'IC50', '> 100 µM');

###

assay: Cytotoxicity against human 2774 cells after 48 hrs by MTT assay; assay type: functional, cell-based
Attribute: IC50
MEASURED ATTRIBUTE: IC50 (µM)

INSERT INTO results (structure_smiles_string, measured_attribute, measured) VALUES
  ('O=c1cc(-c2cccc(F)c2)c2cc3c(cc2[nH]1)OCO3', 'IC50', 24.5),
  ('COc1cc(OC)cc(-c2cc(=O)[nH]c3cc4c(cc23)OCO4)c1', 'IC50', 8.3),
  ('COc1ccc(OC)c(-c2cc(=O)[nH]c3cc4c(cc23)OCO4)c1', 'IC50', 6.5);
